tested on: norepinephrine transporter (NET), uptake 1; experiment: Heart uptake in rats after uptake 1 blockade (desipramine) or 6-hydroxydopamine sympathetic denervation; format: in vivo; conditions: rat, heart, other: injection; rats, control group of denervation, 60 minutes post injection
ASSAY_READOUT: tissue uptake at 60 min

STRUCTURE: N=C(N)NCc1ccc(OCCC[18F])c(Br)c1
STUDY_TARGET: norepinephrine transporter (NET), uptake 1
ASSAY_READOUT: tissue uptake at 60 min
RESULT: 2.58 %ID/g

====

assay: Hygroscopicity of salt forms of imaging agent precursor-1; assay type: physicochemical; conditions: salt form of imaging agent precursor-1
ASSAY_READOUT: Hygroscopicity

MOLECULE: N=C(N)NCc1ccc(OCCCOS(=O)(=O)c2ccc(Br)cc2)c(Br)c1.O=C(O)C(F)(F)F [Trifluoroacetate]
ASSAY_READOUT: Hygroscopicity
RESULT: Slight
//
MOLECULE: N=C(N)NCc1ccc(OCCCOS(=O)(=O)c2ccc(Br)cc2)c(Br)c1 [Phosphate]
ASSAY_READOUT: Hygroscopicity
RESULT: Slight
//
MOLECULE: CS(=O)(=O)O.N=C(N)NCc1ccc(OCCCOS(=O)(=O)c2ccc(Br)cc2)c(Br)c1 [Mesylate]
ASSAY_READOUT: Hygroscopicity
RESULT: Slight
